Listed next: entries and their corresponding pIC50.
target of assay: MKNK1 (Homo sapiens, UniProt Q9BUB5, T385D)
Construct: GST (N); purchased Carna Biosciences 02-145; host or cells: insect cells (baculovirus expression system)
Sequence (Q9BUB5 1-424 isoform Q9BUB5-2 T344D): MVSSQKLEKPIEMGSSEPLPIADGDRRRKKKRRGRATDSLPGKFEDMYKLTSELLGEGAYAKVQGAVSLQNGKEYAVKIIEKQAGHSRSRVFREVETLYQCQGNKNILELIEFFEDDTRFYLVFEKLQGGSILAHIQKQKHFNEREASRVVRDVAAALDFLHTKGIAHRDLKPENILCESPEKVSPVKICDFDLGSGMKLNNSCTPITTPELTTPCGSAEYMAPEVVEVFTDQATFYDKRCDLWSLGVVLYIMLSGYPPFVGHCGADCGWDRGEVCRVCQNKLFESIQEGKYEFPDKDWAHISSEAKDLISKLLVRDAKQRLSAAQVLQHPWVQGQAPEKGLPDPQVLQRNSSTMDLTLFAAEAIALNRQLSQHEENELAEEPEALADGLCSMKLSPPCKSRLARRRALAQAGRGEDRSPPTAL
experiment summary: MKNK1 kinase assay (MKNK1 TR-FRET assay)
Type: biochemical
study conditions: Table 1c; 10 μM ATP, 15 min preincubation
pIC50: −log10 of the molar value.

compound: C[C@H](N)COc1ccc2ncc(-c3cc4c(N(C)CCCO)nccc4o3)n2n1 [III-20]
pIC50: 8.41
--
compound: COCCN(C)c1nccc2oc(-c3cnc4ccc(O[C@H](C)CN)nn34)cc12 [III-34]
pIC50: 8.46
--
compound: C[C@H](N)COc1ccc2ncc(-c3cc4c(N5CC[C@@H](N(C)C)C5)nccc4o3)n2n1 [III-11]
pIC50: 8.57
--
compound: CCN(CCOC)c1nccc2oc(-c3cnc4ccc(O[C@H]5Cc6ccccc6[C@@H]5N)nn34)cc12 [III-111]
pIC50: 8.42
--
compound: C[C@@H]1COCCN1c1nccc2oc(-c3cnc4ccc(O[C@H]5C[C@H](N)C5)nn34)cc12 [III-107]
pIC50: 8.32
--
compound: CCN(CCOC)c1nccc2oc(-c3cnc4ccc(OC[C@@H]5COCCN5)nn34)cc12 [III-35]
pIC50: 9.00
--
compound: CC1(C)CN(c2nccc3oc(-c4cnc5ccc(OC[C@H]6CCC(=O)N6)nn45)cc23)CCO1 [III-142]
pIC50: 8.80
--
compound: CN1CCN(c2nccc3oc(-c4cnc5ccc(OCCCS(C)(=O)=O)nn45)cc23)CC1 [III-43]
pIC50: 8.24

----------
target of assay: MKNK1 (Homo sapiens, UniProt Q9BUB5, T385D)
Construct: GST (N); purchased Carna Biosciences 02-145; host or cells: insect cells (baculovirus expression system)
experiment summary: MKNK1 kinase assay (MKNK1 TR-FRET assay)
Format: biochemical
study conditions: Table 1a; 10 μM ATP, 15 min preincubation
Recorded IC50 values for a group of compounds are listed next.

compound: O=C(NCCOc1ccc2ncc(-c3cc4ccccc4o3)n2n1)c1ccccc1Cl
readout unit: nM
IC50: 5.2
//
compound: O=C1CNC[C@@H](COc2ccc3ncc(-c4cc5ccccc5o4)n3n2)N1
readout unit: nM
IC50: 13.1
//
compound: O=C1NCCC1Oc1ccc2ncc(-c3cc4ccccc4o3)n2n1 (centres unmarked)
readout unit: nM
IC50: 64
//
compound: O=C1CCC(CCOc2ccc3ncc(-c4cc5ccccc5o4)n3n2)N1 (centres unmarked)
readout unit: nM
IC50: 9
//
compound: COc1cccc2oc(-c3cnc4ccc(OC[C@H]5CN(C(=O)C(C)(C)C)CCO5)nn34)cc12
readout unit: nM
IC50: 6.6
//
compound: COCC(=O)NC[C@H](Oc1ccc2ncc(-c3cc4ccccc4o3)n2n1)c1cccnc1
readout unit: nM
IC50: 10.3
//
compound: COCC(=O)N1CCC[C@H]1CCOc1ccc2ncc(-c3cc4ccccc4o3)n2n1
readout unit: nM
IC50: 2.6
//
compound: COc1ccc2oc(-c3cnc4ccc(OCCN5CCNC5=O)nn34)cc2c1
readout unit: nM
IC50: 15.5
//
compound: CN(C)C(=O)COc1ccc2ncc(-c3cc4ccccc4o3)n2n1
readout unit: nM
IC50: 15.1
//
compound: CC(=O)NC[C@@H](C)Oc1ccc2ncc(-c3cc4ccccc4o3)n2n1
readout unit: nM
IC50: 24.5
//
compound: O=C(NCCOc1ccc2ncc(-c3cc4ccccc4o3)n2n1)C1CCC1
readout unit: nM
IC50: 7.8
//
compound: O=C(CO)N1CCC[C@H]1CCOc1ccc2ncc(-c3cc4ccccc4o3)n2n1
readout unit: nM
IC50: 2.8
//
compound: CN1C(=O)CC[C@H]1COc1ccc2ncc(-c3cc4ccccc4o3)n2n1
readout unit: nM
IC50: 13.7
//
compound: O=C(NCCOc1ccc2ncc(-c3cc4ccccc4o3)n2n1)C1CC1
readout unit: nM
IC50: 5.6
//
compound: NC(=O)C(Oc1ccc2ncc(-c3cc4ccccc4o3)n2n1)c1cccnc1 (centres unmarked)
readout unit: nM
IC50: 55.2
//
compound: CC(C)(C)CC(=O)N1CCC[C@H]1CCOc1ccc2ncc(-c3cc4ccccc4o3)n2n1
readout unit: nM
IC50: 3.4
//
compound: COc1cccc2oc(-c3cnc4ccc(OC[C@H]5CN(C(=O)C(F)(F)F)CCO5)nn34)cc12
readout unit: nM
IC50: 7.7

----------
target of assay: MKNK1 (Homo sapiens, UniProt Q9BUB5, T385D)
Construct: GST (N); purchased Carna Biosciences 02-145; host or cells: insect cells (baculovirus expression system)
experiment summary: MKNK1 kinase high ATP assay (TR-FRET-based)
Format: biochemical
study conditions: Table 2a; 2 mM ATP, 15 min preincubation
Binarize IC50 at 9 nM; below is 1.0, at or above is 0.0.

item smiles: CC(C)CC(=O)N1CCC[C@H]1CCOc1ccc2ncc(-c3cc4ccccc4o3)n2n1
group label: 1.0

item smiles: COc1cccc2oc(-c3cnc4ccc(OC[C@H]5CN(C(=O)C(C)(C)C)CCO5)nn34)cc12
group label: 0.0

item smiles: O=C(c1ccon1)N1CCC[C@H]1CCOc1ccc2ncc(-c3cc4ccccc4o3)n2n1
group label: 1.0

item smiles: CN1C(=O)CC[C@H]1COc1ccc2ncc(-c3cc4ccccc4o3)n2n1
group label: 0.0

item smiles: CC(=O)NCCOc1ccc2ncc(-c3cc4ccccc4o3)n2n1
group label: 0.0

item smiles: CC(C)CC(=O)NCCOc1ccc2ncc(-c3cc4ccccc4o3)n2n1
group label: 0.0

item smiles: COc1ccc2oc(-c3cnc4ccc(OCCN5CCNC5=O)nn34)cc2c1
group label: 0.0

----------
target of assay: MKNK1 (Homo sapiens, UniProt Q9BUB5, T385D)
Construct: GST (N); purchased Carna Biosciences 02-145; host or cells: insect cells (baculovirus expression system)
experiment summary: MKNK1 kinase assay (MKNK1 TR-FRET assay)
Assay type: biochemical
study conditions: Table 1a; 10 μM ATP, 15 min preincubation
Catalogue of IC50 readings, one per entry.
measured quantity: IC50 (nM)

item smiles: CC(=O)N1CCC[C@H]1CCOc1ccc2ncc(-c3cc4ccccc4o3)n2n1
target of assay: MKNK1 (Homo sapiens, UniProt Q9BUB5, T385D)
readout value: 1.8

item smiles: Cc1cccc(C(=O)NCCOc2ccc3ncc(-c4cc5ccccc5o4)n3n2)c1
target of assay: MKNK1 (Homo sapiens, UniProt Q9BUB5, T385D)
readout value: 13.7

item smiles: Cn1ccc(C(=O)NCCOc2ccc3ncc(-c4cc5ccccc5o4)n3n2)n1
target of assay: MKNK1 (Homo sapiens, UniProt Q9BUB5, T385D)
readout value: 10.1

item smiles: NC(=O)COc1ccc2ncc(-c3cc4ccccc4o3)n2n1
target of assay: MKNK1 (Homo sapiens, UniProt Q9BUB5, T385D)
readout value: 12.5

item smiles: O=C(C1CCCC1)N1CCC[C@H]1CCOc1ccc2ncc(-c3cc4ccccc4o3)n2n1
target of assay: MKNK1 (Homo sapiens, UniProt Q9BUB5, T385D)
readout value: 4

----------
Each item that follows carries a reported IC50.
target of assay: MKNK1 (Homo sapiens, UniProt Q9BUB5, T385D)
Construct: GST (N); purchased Carna Biosciences 02-145; host or cells: insect cells (baculovirus expression system)
experiment summary: MKNK1 kinase assay (MKNK1 TR-FRET assay)
Assay type: biochemical
study conditions: Table 1a; 10 μM ATP, 15 min preincubation

compound: O=C1CNC[C@H](COc2ccc3ncc(-c4cc5ccccc5o4)n3n2)N1
readout unit: nM
IC50: 14.2
--
compound: O=C1CC[C@@H](COc2ccc3ncc(-c4cc5ccccc5o4)n3n2)N1
readout unit: nM
IC50: 3.1
--
compound: CCC(=O)N1CCC[C@H]1CCOc1ccc2ncc(-c3cc4ccccc4o3)n2n1
readout unit: nM
IC50: 1.1
--
compound: O=C(c1ccsc1)N1CCC[C@H]1CCOc1ccc2ncc(-c3cc4ccccc4o3)n2n1
readout unit: nM
IC50: 1.9
--
compound: CC(Oc1ccc2ncc(-c3cc4ccccc4o3)n2n1)C(N)=O (centres unmarked)
readout unit: nM
IC50: 4.7
--
compound: Cn1ccc(C(=O)N2CCC[C@H]2CCOc2ccc3ncc(-c4cc5ccccc5o4)n3n2)n1
readout unit: nM
IC50: 2.4
--
compound: O=C(CO)NCCOc1ccc2ncc(-c3cc4ccccc4o3)n2n1
readout unit: nM
IC50: 6.6
--
compound: O=C(c1ccno1)N1CCC[C@H]1CCOc1ccc2ncc(-c3cc4ccccc4o3)n2n1
readout unit: nM
IC50: 1.6

----------
target of assay: MKNK1 (Homo sapiens, UniProt Q9BUB5, T385D)
Construct: GST (N); purchased Carna Biosciences 02-145; host or cells: insect cells (baculovirus expression system)
experiment summary: MKNK1 kinase assay (MKNK1 TR-FRET assay)
Assay type: biochemical
study conditions: Table 1c; 10 μM ATP, 15 min preincubation
pIC50: −log10 of the molar value.
measured quantity: pIC50

item smiles: CC(C)(C)N1CCN(c2nccc3oc(-c4cnc5ccc(O[C@H]6C[C@H](N)C6)nn45)cc23)CC1
measured quantity: pIC50
readout value: 7.61
//
item smiles: CC(C)(C)OC(=O)N1CCN(c2nccc3oc(-c4cnc5ccc(OCCCS(C)(=O)=O)nn45)cc23)CC1
measured quantity: pIC50
readout value: 7.67
//
item smiles: C[C@H](N)COc1ccc2ncc(-c3cc4c(N(C)C5CCN(C)CC5)nccc4o3)n2n1
measured quantity: pIC50
readout value: 7.89
//
item smiles: COc1ccc2ncc(-c3cc4c(N5CCO[C@H](C)C5)nccc4o3)n2n1
measured quantity: pIC50
readout value: 7.95
